- Tested on: CCRF-CEM
- assay-overview: NCI tumour cell line growth inhibition, 48 h
Calls of active or inactive are those of the source. No stated cut-off is given here; in the data, active = GI50 up to about 1.1 µM and inactive = higher.
# valid calls are yes (1) = active, no (0) = inactive; nothing else

Incoming: What outcome does the record of this test show for `Cc1ccccc1NC(=O)CSc1nnc(-c2ccc(/N=C\c3ccc(Cl)cc3)cc2)o1` ?
Outgoing: no (0)

Incoming: What outcome does the record of this test show for `CCN(CC)CCCNc1n[n+]([O-])c2ccccc2[n+]1[O-]` ?
Outgoing: no (0)

Incoming: What outcome does the record of this test show for C#CCCCCC#CC1CCCC1C1=CC(=O)c2ccccc21 (stereo not given) ?
Outgoing: no (0)

Incoming: What outcome does the record of this test show for O=C1/C(=C/c2cccs2)NC(=S)N1CN1CCCC(CO)C1 (stereo not given) ?
Outgoing: no (0)

Incoming: What outcome does the record of this test show for `CCOc1ccc(NC(=O)/C=C/c2ccco2)cc1` ?
Outgoing: no (0)

***
Incoming: What outcome does the record of this test show for `CCOC(=O)NNC(=O)NCc1cccc(CNC(=O)NNC(=O)OCC)c1` ?
Outgoing: no (0)

Incoming: What outcome does the record of this test show for `Oc1ccc(/C=N/N=c2\[nH][nH]/c(=N\N=C\c3ccc(O)cc3O)c3ccccc23)c(O)c1` ?
Outgoing: yes (1)

Incoming: What outcome does the record of this test show for `Cc1ccc(/N=N/c2ccc(O)c(CN(C)C)c2)cc1C` ?
Outgoing: no (0)

Incoming: What outcome does the record of this test show for `CCN(CC)C(=O)c1cc([N+](=O)[O-])c(=O)n2c1[nH]c1ccccc12` ?
Outgoing: no (0)

Incoming: What outcome does the record of this test show for COc1ccc(/C=C2\CCC(CCN3CCOCC3)C2=O)cc1 (stereo not given) ?
Outgoing: no (0)

Incoming: What outcome does the record of this test show for `Cc1ccc(CCCCCOc2ccc(C3=NCCO3)cc2)s1` ?
Outgoing: no (0)

Incoming: What outcome does the record of this test show for `Oc1ccc(SCc2cc(O)ccc2O)cc1` ?
Outgoing: no (0)

Incoming: What outcome does the record of this test show for `C(=N\OCc1ccccc1)/c1ncccc1C1OCCO1` ?
Outgoing: no (0)
